B1: TPR t1 (parent)
chain: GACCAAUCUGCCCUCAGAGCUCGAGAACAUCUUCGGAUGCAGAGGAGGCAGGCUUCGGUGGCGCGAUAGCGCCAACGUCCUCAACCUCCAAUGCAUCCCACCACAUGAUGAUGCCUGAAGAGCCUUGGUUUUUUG

# Variants of: B1
# ASSAY TEXT: polymerase ribozyme fitness, log enrichment relative to wild type (log ratio); higher = more active; in vitro selection for triplet polymerase activity
Task for the reader: assign each of the following variants its reported polymerase ribozyme fitness (log ratio).
Number, no unit, nothing else.

input: # input variant: G65C C101U ; wanted: its polymerase ribozyme fitness (log ratio)
output: -4.71

input: Request: C11G A24G A37C G42A U92C A118U
output: -3.62

input: How about this variant: U78C G117A
output: -1.35

input: Repeat for the following variant: A37U C72A
output: -0.493

input: Another variant: C3A G52U C72A C89G C104A G113U A119U C123G
output: -5.02

input: Please give the result for C82G C97A U112C C115G U133G too.
output: -6.38

input: Here is the next variant: A46G C53A G135U
output: -1.55

input: For C20A G110A then?
output: -4.21

input: Then this variant: C22A G36U U55C G120A
output: -4.54

input: How about this variant: A27G G47A C53G
output: -2.77

input: Now this one: C8U G17A
output: -2.57
